The measurements presented in this section are drawn from paper PMC4160279.

- System: NoV VA115 P dimer
- assay-text: Direct ESI-MS assay, NoV VA115 P dimer
- Set-up: species or system human NoV VA115 (GI.3)
- test-parameters: intrinsic (per binding site) association constant; aqueous ammonium acetate (200 mM), pH 7, 25 °C
recorded-metric: Ka,int P dimer VA115 (M^–1)
// return numeric value only (unit: M^–1, not printed)

The following compounds have reported results that may help.
compound	value-measured
CC(=O)N[C@H]1[C@H](O[C@@H]2[C@H](O)[C@@H](O)[C@H](O[C@H]3[C@H](O)[C@@H](O)C(O)O[C@@H]3CO)O[C@@H]2CO)O[C@H](CO)[C@H](O)[C@@H]1O[C@@H]1O[C@H](CO)[C@H](O)[C@H](O[C@]2(C(=O)O)C[C@H](O)[C@@H](NC(C)=O)[C@H]([C@H](O)[C@H](O)CO)O2)[C@H]1O (stereo partly shown)	480
CC(=O)N[C@H]1[C@H](O[C@@H]2[C@H](O[C@]3(C(=O)O)C[C@H](O)[C@@H](NC(C)=O)[C@H]([C@H](O)[C@H](O)CO)O3)[C@@H](O)[C@H](O[C@H]3[C@H](O)[C@@H](O)C(O)O[C@@H]3CO)O[C@@H]2CO)O[C@H](CO)[C@H](O)[C@@H]1O[C@@H]1O[C@H](CO)[C@H](O)[C@H](O[C@]2(C(=O)O)C[C@H](O)[C@@H](NC(C)=O)[C@H]([C@H](O)[C@H](O)CO)O2)[C@H]1O (stereo partly shown)	320
CC(=O)N[C@H]1[C@H](O[C@@H]2[C@H](O[C@]3(C(=O)O)C[C@H](O)[C@@H](NC(C)=O)[C@H]([C@H](O)[C@@H](CO)O[C@]4(C(=O)O)C[C@H](O)[C@@H](NC(C)=O)[C@H]([C@H](O)[C@H](O)CO)O4)O3)[C@@H](O)[C@H](O[C@H]3[C@H](O)[C@@H](O)C(O)O[C@@H]3CO)O[C@@H]2CO)O[C@H](CO)[C@H](O)[C@@H]1O[C@@H]1O[C@H](CO)[C@H](O)[C@H](O)[C@H]1O (stereo partly shown)	340
CC(=O)NC1C(OC2C(CO)OC(OC3C(CO)OC(O)C(O)C3O)C(O)C2OC2(C(=O)O)CC(O)C(NC(C)=O)C(C(O)C(CO)OC3(C(=O)O)CC(O)C(NC(C)=O)C(C(O)C(CO)OC4(C(=O)O)CC(O)C(NC(C)=O)C(C(O)C(O)CO)O4)O3)O2)OC(CO)C(O)C1O (stereo not shown)	230
CC(=O)NC1C(O)CC(OC(CO)C(O)C2OC(OC(CO)C(O)C3OC(OC4C(O)C(CO)OC(OC5C(CO)OC(O)C(O)C5O)C4O)(C(=O)O)CC(O)C3NC(C)=O)(C(=O)O)CC(O)C2NC(C)=O)(C(=O)O)OC1C(O)C(O)CO (stereo not shown)	310

Task: What Ka,int P dimer VA115 value was documented for this compound, CC(=O)N[C@H]1[C@H]([C@H](O)[C@H](O)CO)O[C@@](O[C@H]2[C@@H](O)[C@@H](CO)O[C@@H](O[C@H]3[C@H](O)[C@@H](O)C(O)O[C@@H]3CO)[C@@H]2O)(C(=O)O)C[C@@H]1O (stereo partly shown) ?
Result: 1300

Task: One more compound: CC(=O)N[C@H]1[C@H]([C@H](O)[C@H](O)CO)O[C@@](O[C@H](CO)[C@@H](O)[C@@H]2O[C@@](O[C@H]3[C@@H](O)[C@@H](CO)O[C@@H](O[C@H]4[C@H](O)[C@@H](O)C(O)O[C@@H]4CO)[C@@H]3O)(C(=O)O)C[C@H](O)[C@H]2NC(C)=O)(C(=O)O)C[C@@H]1O (stereo partly shown)
Result: 420
